Taken from PubChem BioAssay AID624330.

Listed molecules paired with reported inhibition
target: Rac GTPase-activating protein 1 (Homo sapiens) (UniProt Q9H0H5); test: blockers of MgcRacGAP-driven Rac1 GTP hydrolysis – biochemical, ADP Hunter fluorescence, primary and confirmatory, confirmation (AID 624330); conditions: MgcRacGAP-stimulated Rac1 GTP hydrolysis, at 30 µM, hits give high values, GST-tagged Rac1 F28L mutant substrate;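 also: fluorescence reports GDP produced by GAP-driven GTP hydrolysis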
Sequence (Q9H0H5 whole entry, looked up): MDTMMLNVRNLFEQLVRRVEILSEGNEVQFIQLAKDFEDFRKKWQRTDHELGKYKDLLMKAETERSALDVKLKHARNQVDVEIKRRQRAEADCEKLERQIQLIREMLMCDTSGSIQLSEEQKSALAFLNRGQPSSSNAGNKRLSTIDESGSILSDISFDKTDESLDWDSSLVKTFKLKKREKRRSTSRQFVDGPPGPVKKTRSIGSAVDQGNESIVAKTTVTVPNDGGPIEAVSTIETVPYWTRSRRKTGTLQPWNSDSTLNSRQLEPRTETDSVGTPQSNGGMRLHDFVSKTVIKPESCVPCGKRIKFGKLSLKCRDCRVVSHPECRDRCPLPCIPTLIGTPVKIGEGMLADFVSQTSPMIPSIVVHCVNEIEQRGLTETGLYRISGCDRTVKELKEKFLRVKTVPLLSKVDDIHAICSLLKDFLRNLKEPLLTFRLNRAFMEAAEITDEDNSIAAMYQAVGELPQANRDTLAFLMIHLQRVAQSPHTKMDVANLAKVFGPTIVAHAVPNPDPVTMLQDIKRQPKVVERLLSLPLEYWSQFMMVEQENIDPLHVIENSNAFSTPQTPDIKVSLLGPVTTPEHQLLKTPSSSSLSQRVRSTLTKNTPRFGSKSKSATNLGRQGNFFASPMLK
The campaign covered roughly 340,000 compounds. About 2,100 (0.62%) were called active. Not all results are given here. Entries with a potency or affinity are not part of this list.
Observation type: inhibition (%)

1. COc1ccc([N+](=O)[O-])cc1N(CC(=O)NCCCOC(C)C)S(C)(=O)=O :: 7.79
2. CCS(=O)(=O)Nc1cccc(C2=NN(S(=O)(=O)c3ccc(C)cc3)C(c3cccs3)C2)c1 (stereo not given) :: -1.77
3. CC1CCCC(C)N1/N=C/c1ccc(N(C)C)cc1 (stereo not given) :: 9.58
4. CC(NC(=O)C(=O)N1CCOCC1)C(c1cccs1)N1CCN(c2ccccc2)CC1 (stereo not given) :: 11
5. COC(=O)c1cc(Nc2cc(C)c3ccc(O)cc3n2)cc(C(=O)OC)c1 :: 11.8
6. O=C(Nc1ccc(Cl)cc1Cl)NC1CCN(S(=O)(=O)c2ccc(F)cc2)CC1 :: 9.28
7. CN(C)c1ccc(C=NN2CCCCCC2)cc1 :: -2.87
8. CCn1cc(C(=O)N2CCN(c3ccc(OC)cc3)CC2)c2cc(OC)c(OC)cc2c1=O :: 18.7
9. CCCCn1c(N)c(N(Cc2ccccc2OC)C(=O)C(C)Oc2ccc(Cl)cc2)c(=O)[nH]c1=O (stereo not given) :: 3.24
10. CCN1/C(=C2\C(=O)N(C)C(=S)N2C)C=Cc2cc(C)ccc21 :: 30.1
11. CCCCC/C=C/C1=CC(=O)C[C@H](c2ccc3c(c2)OCO3)C1 :: 5.09
12. O=C(C1CC1)N1CCN(Cc2ccccc2)CC1 :: 7.23
13. NC(=S)N=Nc1c(O)n(CC(=O)Nc2ccccc2)c2ccccc12 :: -6.62
14. COc1ccccc1N1CCN(Cc2ccc(Br)o2)CC1 :: 29.6
15. COc1ccccc1N1CCN(C2CCCN(Cc3ccc(Cl)cc3)C2)CC1 (stereo not given) :: -6.75
16. COc1cc(CN2CCN(c3cccc(C)c3C)CC2)cc(OC)c1O :: 27
17. COc1cc(C(=O)OCCN2CCCCC2)ccc1O :: 21.2
18. CCN1/C(=C2/SC(=S)N(C)C2=O)C=Cc2cc(C)ccc21 :: 1.56
19. CCOC(=O)c1c(C)n(C)c2ccc(OC)c([N+](=O)[O-])c12 :: 8.57
20. C=CCn1c(SCc2ccc(C(=O)OC)cc2)nnc1-c1sc(N)nc1C :: 3.61
21. O=C(CSCC(=O)OCC(=O)c1ccc(Br)cc1)Nc1ccc(Br)cc1 :: 2.71
22. C=CCOc1ccc(/C(CC)=N/O)cc1OC :: 3.46
23. COc1cc(CN2CCC(C(=O)N3CCN(c4ccccc4F)CC3)CC2)cc(OC)c1O :: 23.4
24. COc1ccc(CC(Cc2ccc(OC)c(OC)c2)NC=O)cc1OC :: 8.2
25. CC(=O)c1ccc(N2CCN(CC(=O)NCc3ccccc3)CC2)cc1 :: 6.75
26. O=C(CC1C[C@H](C(=O)N2CCCCC2)[C@@]2(CCc3ccccc3)c3[nH]c4ccccc4c3CCN2C1=O)NCCc1ccccn1 (stereo not given in full) :: 10.2
27. Cc1cnc(C(=O)OC(C(=O)c2c[nH]c3ccccc23)c2ccccc2)cn1 (stereo not given) :: 10
28. NC(=O)CSC1=N/C(=C\c2ccco2)C(=O)N1c1ccc(OC(F)F)cc1 :: 9.08
29. COc1cc(C(=O)C(=O)c2ccc(O)c(OC)c2)ccc1O :: 13.4
30. Cc1cccc(NS(=O)(=O)c2ccc(C)c(C(=O)NCC(c3ccco3)N3CCCCC3)c2)c1 (stereo not given) :: 4.69
31. COc1cccc(N2CCN(Cc3ncc(-c4ccccc4)o3)CC2)c1 :: 7.37
32. CCOC(=O)c1nc(C)nc(Sc2n[nH]c(-c3ccccc3)n2)c1C :: 9.53
33. CCN1CCN(c2cc(N3CCN(C(=O)c4ccco4)CC3)c3c4c(onc24)-c2ccccc2C3=O)CC1 :: 25.5
34. COc1ccc(N(C)S(=O)(=O)c2cccc(C(=O)NCC(c3cccs3)N(C)C)c2)cc1 (stereo not given) :: 5.09
35. CCOc1ccc(CN2CCC(C(=O)N3CCN(c4ccccc4F)CC3)CC2)cc1OC :: 23.7
